Provenance of the data: patent US11197862B2

molecular target: OCT2 (Homo sapiens, UniProt O15244); assay: Inhibition of OCT2-mediated oxaliplatin uptake in transfected MDCK-II cells (protein-free HBSS)
OBSERVED PROPERTY: IC50 (nM)
# output: bare number, implied unit nM

MOLECULE | RESULT UNITS | READING
Clc1ccc(COC(Cn2ccnc2)c2ccc(Cl)cc2Cl)c(Cl)c1 (centres unmarked) [Miconazole] | nM | 1550
C[C@@H]1CCO[C@H]2Cn3cc(C(=O)NCc4ccc(F)cc4F)c(=O)c(O)c3C(=O)N12 [Dolutegravir] | nM | 200
CCNC(=O)[C@@H]1CCCN1C(=O)[C@H](CCCNC(=N)N)NC(=O)[C@H](CC(C)C)NC(=O)[C@@H](CC(C)C)NC(=O)[C@H](Cc1ccc(O)cc1)NC(=O)[C@H](CO)NC(=O)[C@H](Cc1c[nH]c2ccccc12)NC(=O)[C@H](Cc1c[nH]cn1)NC(=O)[C@@H]1CCC(=O)N1 [Leuprolide] | nM | 1570

**Query** Identify the measured IC50 of COc1cc(OC)c(C(=O)CCCN2CCCC2)c(OC)c1 [Buflomedil] for OCT2 (Homo sapiens, UniProt O15244).
**Result** 780

**Query** Identify the measured IC50 of CN/C(=N/CCSCc1nc[nH]c1C)NC#N [Cimetidine] for OCT2 (Homo sapiens, UniProt O15244).
**Result** 9710

---

Reported IC50 is given for each of the following compounds.
molecular target: OCT2 (Homo sapiens, UniProt O15244); experiment: Inhibition of OCT2-mediated oxaliplatin transport in 100% human serum or HBSS containing 4% BSA (IC50,app); settings: OCT2 IC50, app (μM), 100% human serum or HBSS containing 4% BSA; 20 μM or 100 μM oxaliplatin
# output: bare number, implied unit µM

COMPOUND | OBSERVED PROPERTY | RESULT UNITS | READING
CN/C(=N/CCSCc1nc[nH]c1C)NC#N | IC50 | µM | 36.8
COc1cc(OC)c(C(=O)CCCN2CCCC2)c(OC)c1 | IC50 | µM | 1.4
C[C@@H]1CCO[C@H]2Cn3cc(C(=O)NCc4ccc(F)cc4F)c(=O)c(O)c3C(=O)N12 | IC50 | µM | 3.4

Here's the next entry for you.
**Query** Identify the measured IC50 of Clc1ccc(COC(Cn2ccnc2)c2ccc(Cl)cc2Cl)c(Cl)c1 (stereo not shown) for OCT2 (Homo sapiens, UniProt O15244).
**Result** 3.3

---

Molecular target: UniProt O15244
Sequence (O15244 1-555): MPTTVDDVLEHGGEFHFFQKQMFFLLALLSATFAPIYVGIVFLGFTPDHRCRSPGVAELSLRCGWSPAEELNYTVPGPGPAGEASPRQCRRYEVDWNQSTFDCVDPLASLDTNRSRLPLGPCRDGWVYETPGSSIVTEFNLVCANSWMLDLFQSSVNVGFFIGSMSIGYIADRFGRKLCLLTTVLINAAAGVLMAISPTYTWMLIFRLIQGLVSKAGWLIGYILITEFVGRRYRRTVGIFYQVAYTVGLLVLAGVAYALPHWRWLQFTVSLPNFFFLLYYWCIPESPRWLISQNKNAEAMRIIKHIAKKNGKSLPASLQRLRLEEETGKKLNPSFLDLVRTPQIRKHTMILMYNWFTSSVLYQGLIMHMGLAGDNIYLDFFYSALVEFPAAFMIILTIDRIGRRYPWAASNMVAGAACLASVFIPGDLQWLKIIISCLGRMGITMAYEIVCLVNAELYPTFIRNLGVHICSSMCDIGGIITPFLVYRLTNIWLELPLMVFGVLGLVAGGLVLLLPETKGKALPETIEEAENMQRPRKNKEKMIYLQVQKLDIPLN
Test: in vitro
OBSERVED PROPERTY: potency estimated from few doses (µM)
# output: bare number, implied unit µM

**Query** Entry under review: CCNC(=O)[C@@H]1CCCN1C(=O)[C@H](CCCNC(=N)N)NC(=O)[C@H](CC(C)C)NC(=O)[C@@H](CC(C)C)NC(=O)[C@H](Cc1ccc(O)cc1)NC(=O)[C@H](CO)NC(=O)[C@H](Cc1c[nH]c2ccccc12)NC(=O)[C@H](Cc1c[nH]cn1)NC(=O)[C@@H]1CCC(=O)N1 [Leuprolide] . Reported potency estimated from few doses?
**Result** 2.8
